Each entry below carries its reported pIC50.
Biological target: human cyclin D1-CDK4 (Homo sapiens, UniProt P11802)
Sequence (P11802 whole entry): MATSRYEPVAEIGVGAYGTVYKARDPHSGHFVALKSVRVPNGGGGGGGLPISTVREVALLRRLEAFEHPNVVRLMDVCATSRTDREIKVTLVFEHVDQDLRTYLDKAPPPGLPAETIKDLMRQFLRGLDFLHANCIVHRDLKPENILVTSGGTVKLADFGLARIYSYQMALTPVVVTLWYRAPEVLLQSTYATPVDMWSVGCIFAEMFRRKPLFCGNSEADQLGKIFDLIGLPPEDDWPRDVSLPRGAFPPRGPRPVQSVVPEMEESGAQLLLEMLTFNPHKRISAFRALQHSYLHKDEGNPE
Sequence (P24385 whole entry partner): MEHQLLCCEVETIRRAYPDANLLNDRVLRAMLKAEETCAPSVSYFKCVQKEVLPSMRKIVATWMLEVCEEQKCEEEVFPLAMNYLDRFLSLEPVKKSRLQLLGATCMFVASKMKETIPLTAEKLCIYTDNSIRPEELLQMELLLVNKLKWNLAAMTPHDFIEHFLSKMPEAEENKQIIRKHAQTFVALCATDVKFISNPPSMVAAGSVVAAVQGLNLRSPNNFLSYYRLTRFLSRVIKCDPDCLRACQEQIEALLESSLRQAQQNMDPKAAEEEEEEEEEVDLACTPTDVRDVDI
Assay: FlashPlate kinase assay, cyclin D1-CDK4
Conditions: Rb protein substrate, 1 μM ATP
Field pIC50 (float): negative decimal logarithm of the concentration in molar.

Example cases with answers are listed next.
INSERT INTO measurements (molecule, assay_metric, experimental_value) VALUES
  ('Nc1nc(Nc2ccc(N3CCN(CCO)CC3)cc2)sc1C(=O)c1ccc(N2CCCC2)cc1 [Example 50]', 'pIC50', 7.52),
  ('CN1CCN(c2ccc(Nc3nc(N)c(C(=O)c4ccc5c(c4)OCO5)s3)cc2F)CC1 [Example 38]', 'pIC50', 8.22),
  ('COc1cccc(C(=O)c2sc(Nc3ccc(N4CCN(C(C)C)CC4)cc3)nc2N)c1 [Example 43]', 'pIC50', 7.68),
  ('CCN(CC)c1ccc(C(=O)c2sc(Nc3ccc(N4CCN(C)CC4)cc3)nc2N)cc1 [Example 33]', 'pIC50', 8.10),
  ('CC(C)N1CCN(c2ccc(Nc3nc(N)c(C(=O)c4ccc5c(c4)OCCO5)s3)cc2)CC1 [Example 41]', 'pIC50', 7.82),
  ('CN1CCN(c2ccc(Nc3nc(N)c(C(=O)c4ccc(N5CCCC5)cc4)s3)cc2)CC1 [Example 26]', 'pIC50', 7.23),
  ('COc1ccc(C(=O)c2sc(Nc3ccc(N4CCN(C)CC4)cc3)nc2N)cc1 [Example 32]', 'pIC50', 7.10),
  ('CC(C)C[C@H](CO)Nc1ccc(C(=O)c2sc(Nc3ccc(N4CCN(C)CC4)cc3)nc2N)cc1N [Example 66]', 'pIC50', 7.70);

Exercise: Supply pIC50 measured with human cyclin D1-CDK4 (Homo sapiens, UniProt P11802) for CC1CCCN1c1ccc(C(=O)c2sc(Nc3ccc(N4CCN(C)CC4)cc3)nc2N)cc1[N+](=O)[O-] (racemic) [Example 62] .
Solution: 7.36

Exercise: Provide measured pIC50 on human cyclin D1-CDK4 (Homo sapiens, UniProt P11802) for CN1CCN(c2ccc(Nc3nc(N)c(C(=O)c4ccc(N5CCOCC5)c([N+](=O)[O-])c4)s3)cc2)CC1 [Example 59] please.
Solution: 7.62

Exercise: Give pIC50 for CN1CCN(c2ccc(Nc3nc(N)c(C(=O)c4ccc(N5CCCC(CO)C5)c([N+](=O)[O-])c4)s3)cc2)CC1 (racemic) [Example 61] tested on human cyclin D1-CDK4 (Homo sapiens, UniProt P11802).
Solution: 7.92

Exercise: Please tell me the measured pIC50 for COc1cccc(C(=O)c2sc(Nc3ccc(N4CCN(C)CC4)c(F)c3)nc2N)c1 [Example 40] ; system: human cyclin D1-CDK4 (Homo sapiens, UniProt P11802).
Solution: 7.85

Exercise: Give measured pIC50 for COc1ccc(C(=O)c2sc(Nc3ccc(N4CCN(C)CC4)cc3)nc2N)cc1F [Example 35] (human cyclin D1-CDK4 (Homo sapiens, UniProt P11802)).
Solution: 8.10

Exercise: State, for human cyclin D1-CDK4 (Homo sapiens, UniProt P11802), measured pIC50 of the molecule listed here: CN1CCN(c2ccc(Nc3nc(N)c(C(=O)c4ccc5c(c4)OCO5)s3)cc2)CC1 [Example 25]
Solution: 7.74

Exercise: System human cyclin D1-CDK4 (Homo sapiens, UniProt P11802). Read-out pIC50. Item CN1CCN(c2ccc(Nc3nc(N)c(C(=O)c4ccc(Cl)c(Cl)c4)s3)cc2)CC1 [Example 37] . Report value.
Solution: 7.14

Exercise: Report pIC50 on human cyclin D1-CDK4 (Homo sapiens, UniProt P11802) for this entry: CN1CCN(c2ccc(Nc3nc(N)c(C(=O)c4ccc(N5CCCC5)c([N+](=O)[O-])c4)s3)cc2)CC1 [Example 58]
Solution: 7.72

The measured values listed here are drawn from patent US6756374B2.
